Experiment: activity coefficient (dimensionless); of the first substance listed, at infinite dilution; xn = mol fraction of the nth substance listed
Settings: 323.15 K; 101.33 kPa; Liquid; Chromatography; x1 = 0
Given measured activity coefficient, output T if it is greater than or equal to 0.4 and F if not.

Solved entries (count: 5):
>>> df
                                   molecule  category
0  CC#N [acetonitrile] + CC(CC(C)(C)C)CP(=O)([O-])CC(C)CC(C)(C)C.CCCCCCCCCCCCCC[P+](CCCCCC)(CCCCCC)CCCCCC         T
1  C1=CCCCC1 [cyclohexene] + CC(CC(C)(C)C)CP(=O)([O-])CC(C)CC(C)(C)C.CCCCCCCCCCCCCC[P+](CCCCCC)(CCCCCC)CCCCCC         T
2  C1CCOC1 [tetrahydrofuran] + CC(CC(C)(C)C)CP(=O)([O-])CC(C)CC(C)(C)C.CCCCCCCCCCCCCC[P+](CCCCCC)(CCCCCC)CCCCCC         T
3  CCO [ethanol] + CC(CC(C)(C)C)CP(=O)([O-])CC(C)CC(C)(C)C.CCCCCCCCCCCCCC[P+](CCCCCC)(CCCCCC)CCCCCC         F
4  CC(C)=O [acetone] + CC(CC(C)(C)C)CP(=O)([O-])CC(C)CC(C)(C)C.CCCCCCCCCCCCCC[P+](CCCCCC)(CCCCCC)CCCCCC         T

Ask: Confirm if activity coefficient reported for the molecule CCC(C)(C)C [2,2-dimethylbutane] + CC(CC(C)(C)C)CP(=O)([O-])CC(C)CC(C)(C)C.CCCCCCCCCCCCCC[P+](CCCCCC)(CCCCCC)CCCCCC is 0.4 or above.
Reply: T

Ask: Query Cc1ccc(C)cc1 [1,4-dimethylbenzene] + CC(CC(C)(C)C)CP(=O)([O-])CC(C)CC(C)(C)C.CCCCCCCCCCCCCC[P+](CCCCCC)(CCCCCC)CCCCCC next
Reply: T

Ask: Query O [water] + CC(CC(C)(C)C)CP(=O)([O-])CC(C)CC(C)(C)C.CCCCCCCCCCCCCC[P+](CCCCCC)(CCCCCC)CCCCCC next
Reply: F

Ask: Query CO [methanol] + CC(CC(C)(C)C)CP(=O)([O-])CC(C)CC(C)(C)C.CCCCCCCCCCCCCC[P+](CCCCCC)(CCCCCC)CCCCCC next
Reply: F

----------
Recorded measurements of activity coefficient, one per entry
Experiment: activity coefficient (dimensionless); of the first substance listed, at infinite dilution; xn = mol fraction of the nth substance listed
Settings: 343.15 K; 101.33 kPa; Liquid; Chromatography; x1 = 0
Answer with the value's number alone.

# example entries with known answers
compound	experimentalValue
C=CCCCCCCC [1-nonene] + CC(CC(C)(C)C)CP(=O)([O-])CC(C)CC(C)(C)C.CCCCCCCCCCCCCC[P+](CCCCCC)(CCCCCC)CCCCCC	1.14
Cc1ccccc1 [toluene] + CC(CC(C)(C)C)CP(=O)([O-])CC(C)CC(C)(C)C.CCCCCCCCCCCCCC[P+](CCCCCC)(CCCCCC)CCCCCC	0.59
Cc1cccc(C)c1 [1,3-dimethylbenzene] + CC(CC(C)(C)C)CP(=O)([O-])CC(C)CC(C)(C)C.CCCCCCCCCCCCCC[P+](CCCCCC)(CCCCCC)CCCCCC	0.7
CC(C)CC(C)(C)C [2,2,4-trimethylpentane] + CC(CC(C)(C)C)CP(=O)([O-])CC(C)CC(C)(C)C.CCCCCCCCCCCCCC[P+](CCCCCC)(CCCCCC)CCCCCC	1.14
C=CCCCCC [1-heptene] + CC(CC(C)(C)C)CP(=O)([O-])CC(C)CC(C)(C)C.CCCCCCCCCCCCCC[P+](CCCCCC)(CCCCCC)CCCCCC	0.95
c1ccsc1 [thiophene] + CC(CC(C)(C)C)CP(=O)([O-])CC(C)CC(C)(C)C.CCCCCCCCCCCCCC[P+](CCCCCC)(CCCCCC)CCCCCC	0.44
CCC(C)(C)C [2,2-dimethylbutane] + CC(CC(C)(C)C)CP(=O)([O-])CC(C)CC(C)(C)C.CCCCCCCCCCCCCC[P+](CCCCCC)(CCCCCC)CCCCCC	0.97
CCCCCCCCC [nonane] + CC(CC(C)(C)C)CP(=O)([O-])CC(C)CC(C)(C)C.CCCCCCCCCCCCCC[P+](CCCCCC)(CCCCCC)CCCCCC	1.25

Ask: Which activity coefficient is listed for CCCCCCCCCC [decane] + CC(CC(C)(C)C)CP(=O)([O-])CC(C)CC(C)(C)C.CCCCCCCCCCCCCC[P+](CCCCCC)(CCCCCC)CCCCCC ?
Reply: 1.39

Ask: Query O [water] + CC(CC(C)(C)C)CP(=O)([O-])CC(C)CC(C)(C)C.CCCCCCCCCCCCCC[P+](CCCCCC)(CCCCCC)CCCCCC next
Reply: 0.31

Ask: Query CCc1ccccc1 [ethylbenzene] + CC(CC(C)(C)C)CP(=O)([O-])CC(C)CC(C)(C)C.CCCCCCCCCCCCCC[P+](CCCCCC)(CCCCCC)CCCCCC next
Reply: 0.68

Ask: Query C1=CCCCC1 [cyclohexene] + CC(CC(C)(C)C)CP(=O)([O-])CC(C)CC(C)(C)C.CCCCCCCCCCCCCC[P+](CCCCCC)(CCCCCC)CCCCCC next
Reply: 0.68

Ask: Query CC(C)=O [acetone] + CC(CC(C)(C)C)CP(=O)([O-])CC(C)CC(C)(C)C.CCCCCCCCCCCCCC[P+](CCCCCC)(CCCCCC)CCCCCC next
Reply: 0.83

Ask: Query C=CCCCCCCCC [1-decene] + CC(CC(C)(C)C)CP(=O)([O-])CC(C)CC(C)(C)C.CCCCCCCCCCCCCC[P+](CCCCCC)(CCCCCC)CCCCCC next
Reply: 1.18

----------
Experiment: activity coefficient (dimensionless); of the first substance listed, at infinite dilution; xn = mol fraction of the nth substance listed
Details: 323.15 K; 101.33 kPa; Liquid; Chromatography; x1 = 0
Recorded measurements of activity coefficient, one per entry
Answer with the value's number alone.

# example entries with known answers
>>> df
                                   compound  experimentalvalue
0  Cc1cccc(C)c1 [1,3-dimethylbenzene] + CC(CC(C)(C)C)CP(=O)([O-])CC(C)CC(C)(C)C.CCCCCCCCCCCCCC[P+](CCCCCC)(CCCCCC)CCCCCC               0.65
1  CCc1ccccc1 [ethylbenzene] + CC(CC(C)(C)C)CP(=O)([O-])CC(C)CC(C)(C)C.CCCCCCCCCCCCCC[P+](CCCCCC)(CCCCCC)CCCCCC                0.6

// below: activity coefficient requested for another compound
Ask: Which activity coefficient is listed for Cc1ccccc1C [1,2-dimethylbenzene] + CC(CC(C)(C)C)CP(=O)([O-])CC(C)CC(C)(C)C.CCCCCCCCCCCCCC[P+](CCCCCC)(CCCCCC)CCCCCC ?
Reply: 0.62

----------
Recorded measurements of activity coefficient, one per entry
Assay: activity coefficient (dimensionless); of the first substance listed, at infinite dilution; xn = mol fraction of the nth substance listed
Details: 333.15 K; 101.33 kPa; Liquid; Chromatography; x1 = 0
Answer with the value's number alone.

>>> print(df.to_string())
                                   molecule              endpoint  experimentalvalue
0  Cc1ccccc1C [1,2-dimethylbenzene] + CC(CC(C)(C)C)CP(=O)([O-])CC(C)CC(C)(C)C.CCCCCCCCCCCCCC[P+](CCCCCC)(CCCCCC)CCCCCC  activity coefficient               0.64
1  Cc1ccc(C)cc1 [1,4-dimethylbenzene] + CC(CC(C)(C)C)CP(=O)([O-])CC(C)CC(C)(C)C.CCCCCCCCCCCCCC[P+](CCCCCC)(CCCCCC)CCCCCC  activity coefficient               0.65
2  C=CCCCCC [1-heptene] + CC(CC(C)(C)C)CP(=O)([O-])CC(C)CC(C)(C)C.CCCCCCCCCCCCCC[P+](CCCCCC)(CCCCCC)CCCCCC  activity coefficient               0.88
3  CCO [ethanol] + CC(CC(C)(C)C)CP(=O)([O-])CC(C)CC(C)(C)C.CCCCCCCCCCCCCC[P+](CCCCCC)(CCCCCC)CCCCCC  activity coefficient               0.06
4  C1CCCCCCC1 [cyclooctane] + CC(CC(C)(C)C)CP(=O)([O-])CC(C)CC(C)(C)C.CCCCCCCCCCCCCC[P+](CCCCCC)(CCCCCC)CCCCCC  activity coefficient               0.77
5  CCc1ccccc1 [ethylbenzene] + CC(CC(C)(C)C)CP(=O)([O-])CC(C)CC(C)(C)C.CCCCCCCCCCCCCC[P+](CCCCCC)(CCCCCC)CCCCCC  activity coefficient               0.65
6  C=CCCCCCCC [1-nonene] + CC(CC(C)(C)C)CP(=O)([O-])CC(C)CC(C)(C)C.CCCCCCCCCCCCCC[P+](CCCCCC)(CCCCCC)CCCCCC  activity coefficient               1.08
7  CCCCO [butan-1-ol] + CC(CC(C)(C)C)CP(=O)([O-])CC(C)CC(C)(C)C.CCCCCCCCCCCCCC[P+](CCCCCC)(CCCCCC)CCCCCC  activity coefficient               0.11

Ask: Which activity coefficient is listed for O [water] + CC(CC(C)(C)C)CP(=O)([O-])CC(C)CC(C)(C)C.CCCCCCCCCCCCCC[P+](CCCCCC)(CCCCCC)CCCCCC ?
Reply: 0.3

Ask: Query c1ccsc1 [thiophene] + CC(CC(C)(C)C)CP(=O)([O-])CC(C)CC(C)(C)C.CCCCCCCCCCCCCC[P+](CCCCCC)(CCCCCC)CCCCCC next
Reply: 0.41

Ask: Query CO [methanol] + CC(CC(C)(C)C)CP(=O)([O-])CC(C)CC(C)(C)C.CCCCCCCCCCCCCC[P+](CCCCCC)(CCCCCC)CCCCCC next
Reply: 0.05

Ask: Query C1=CCCCC1 [cyclohexene] + CC(CC(C)(C)C)CP(=O)([O-])CC(C)CC(C)(C)C.CCCCCCCCCCCCCC[P+](CCCCCC)(CCCCCC)CCCCCC next
Reply: 0.64

Ask: Query CC(C)=O [acetone] + CC(CC(C)(C)C)CP(=O)([O-])CC(C)CC(C)(C)C.CCCCCCCCCCCCCC[P+](CCCCCC)(CCCCCC)CCCCCC next
Reply: 0.78

Ask: Query CC1CCCCC1 [methylcyclohexane] + CC(CC(C)(C)C)CP(=O)([O-])CC(C)CC(C)(C)C.CCCCCCCCCCCCCC[P+](CCCCCC)(CCCCCC)CCCCCC next
Reply: 0.73

Entry source: the NIST ThermoML archive (doi:10.1016/j.jct.2019.05.011)
